- Protocol Summary: NCI Yeast Anticancer Drug Screen. Data for the cln2 rad14 strain (AID 165);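 further: 0% = growth equal to vehicle treated cultures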
- Condition Notes: S. cerevisiae cln2 rad14 strain, at 50.0 µM, stronger effect = higher value
About 79,000 compounds went through this panel and 15% of them were active in at least one assay; those are over-represented in the sample as a whole.
Parameter: growth inhibition (%)
Quick note: give the figure in %, leave out the unit.

Known results for compounds:
Cc1cc(C)c([N+](=O)[O-])c(N)n1; -52
CCN(CC)c1cc2c3c(c1)CCCN3CCC2; 2.55
N#CC(OC(=O)c1ccccc1)C(OC(=O)c1ccccc1)C(COC(=O)c1ccccc1)OC(=O)c1ccccc1 (stereo unspecified); 20.5

Tell me growth inhibition reported for CCOC(=O)C(C(C)=O)C(c1ccc(N(C)C)cc1)C(C(C)=O)C(=O)OCC (stereo unspecified) -6.2

Tell me growth inhibition reported for O=C(C(=O)N1CCc2ccccc21)c1c[nH]c2ccccc12 3.1

Tell me growth inhibition reported for C=CCc1cc(C(=O)O)ccc1OC -1.7

----------
- Protocol Summary: NCI Yeast Anticancer Drug Screen. Data for the bub3 strain (AID 167)
- Condition Notes: S. cerevisiae bub3 mutant strain, at 50.0 µM, stronger effect = higher value
This is part of a sample that, as a whole, favours compounds with a hit. Of some 79,000 tested, about 15% had one in any assay.
# growth inhibition listing for each entry below
Quick note: give the figure in %, leave out the unit.

Cc1cnc(Sc2ncccc2[N+](=O)[O-])nc1; -3.1
CCC(C)c1ccc(CCO)cc1 (centres undefined); -6.65
CCCCCOc1ccc(C(=O)OC)cc1; -0.1
CN(C)c1ccc(/C=c2\[nH]c(=O)/c(=C\c3ccc(N(C)C)cc3)[nH]c2=O)cc1; -8.55
CC(=O)CCC(CC=O)C(C)C (centres undefined); -3.65

Tell me growth inhibition reported for O=C(O)C12CC3(C(=O)O)CC(C(=O)O)(CC(C(=O)O)(C1)C3=O)C2=O -28.1

Tell me growth inhibition reported for CCC(=O)Nc1cc(Cl)ccc1C 9.25

Tell me growth inhibition reported for CCN(CC)COC(=O)C(C)(C)C -9.25

Tell me growth inhibition reported for Cn1c(=O)oc2cc(C(=O)CSC(=S)N3CCCCCC3)ccc21 -4.8

----------
# growth inhibition listing for each entry below
- Protocol Summary: NCI Yeast Anticancer Drug Screen. Data for the mec2-1 strain (AID 157)
- Condition Notes: S. cerevisiae mec2-1 strain, at 50.0 µM, stronger effect = higher value
About 79,000 compounds went through this panel and 15% of them were active in at least one assay; those are over-represented in the sample as a whole.
Quick note: give the figure in %, leave out the unit.

Known results for molecules:
Cc1nc(-c2cccnc2)sc1C(=O)/C=C/c1ccc(Cl)cc1Cl; -2.05
COc1cc(N=C2C=CC(=O)C=C2)c2ncccc2c1; 1.05
COC(=O)C1OC1c1ccncc1 (stereo not drawn); 6.15

Tell me growth inhibition reported for CCC(=O)OCCC(C)C 12.2

Tell me growth inhibition reported for O=C1NC(=O)c2ccc(S)c3cccc1c23 0

Tell me growth inhibition reported for O=C(Nc1ccc(F)cc1)C(Br)C(Br)c1ccccc1 (stereo not drawn) 88.2

Tell me growth inhibition reported for CCOC(=O)c1nc(SC)sc1NC(=O)c1ccc(OC)cc1 -7.3

----------
- Protocol Summary: NCI Yeast Anticancer Drug Screen. Data for the rad50 strain (AID 155);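 further: 0% = growth of vehicle-only cultures of the same strain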
- Condition Notes: S. cerevisiae rad50 strain growth inhibition; at 50.0 µM; stronger effect = higher value
About 79,000 compounds went through this panel and 15% of them were active in at least one assay; those are over-represented in the sample as a whole.
# growth inhibition listing for each entry below
Quick note: give the figure in %, leave out the unit.

Known results for compounds:
CCCCCCCNC1=C(O)c2ccccc2C(=O)C1=O; -11.4
COC(=O)[C@H]1C=C[C@@H](C)n2c(=O)c3ccccc3c(=O)n21; -9
COc1ccc(O)c(/C=N\N=C\c2cc(OC)ccc2O)c1; -1.25
CC1(C)CSC(C)(C)C(=O)N1; 4.9
Cc1ccc(C)c(NC(=O)C(=O)C(C2C(C)CC(=O)C2CC(=O)O)[N+](=O)[O-])c1 (stereo not given); 7.05
O=C(O)Cc1cccc2nnnn12; 14.2
Cc1ncc([N+](=O)[O-])n1CCNS(=O)(=O)CCCn1ccnc1[N+](=O)[O-]; -4.85
CCO[C@H]1c2cc3c(cc2[C@@H](c2cc(OC)c(OC)c(OC)c2)[C@H]2C(=O)OC[C@@H]21)OCO3; 11.4
CC(=O)Nc1ccc([N+](=O)[O-])cc1; 30.9
CC1=C(C(=O)Nc2cc(F)c(F)cc2F)C(c2cccc([N+](=O)[O-])c2)C(C(=O)Nc2ccccc2C(F)(F)F)=C(C)N1 (stereo not given); 20.4

Tell me growth inhibition reported for O=Cc1ccccc1[N+](=O)[O-] 18.9

Tell me growth inhibition reported for COC(=O)c1cc(O)c(C(=O)OC)s1 3.05
